Reported EC50 [nM], 0% HSA values for the following binders.
# experimental.target: human corticotropin-releasing factor 2α (CRF2 α receptor) (human), Q13324
# Sequence (Q13324 20-411): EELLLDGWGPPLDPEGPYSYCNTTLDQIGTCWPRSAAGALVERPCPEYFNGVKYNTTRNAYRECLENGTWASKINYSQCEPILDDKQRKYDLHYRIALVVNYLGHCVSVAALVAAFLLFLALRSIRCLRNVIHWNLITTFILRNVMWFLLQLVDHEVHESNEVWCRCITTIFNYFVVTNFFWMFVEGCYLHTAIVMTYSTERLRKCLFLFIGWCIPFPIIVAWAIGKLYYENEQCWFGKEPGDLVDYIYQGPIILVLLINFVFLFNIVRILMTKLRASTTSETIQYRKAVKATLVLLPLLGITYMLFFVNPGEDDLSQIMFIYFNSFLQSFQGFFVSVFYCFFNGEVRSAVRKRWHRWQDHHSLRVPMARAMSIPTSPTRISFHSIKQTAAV
# experimental.details: cell-based or functional assay
Starred links: 1 amine or outer side, 2 acyl side, 3 side chain; linkers in the order of their positions; H or OH if unused. Non-standard residues stand in square brackets, D forms with d. Groups on a side chain read outwards from the residue. No end group written: not given here. *: point of attachment. C18 diacid = O=C(O)CCCCCCCCCCCCCCCCC(=O)*; γGlu = O=C(O)[C@H](CCC(=O)[*:2])N[*:1]; AEEA = NCCOCCOCC(=O)O; Aib = CC(C)(N)C(=O)O
Use nM as the unit, but write only the number.

Would you please look over these solved cases?
query: May I ask what EC50 [nM], 0% HSA has been recorded for FTLSLDVPIGLKQILLKQQKQKKERQQAETNVQLLERV-NH2 (not fully specified (residue 12); printed as FTLSLDVPIGLK*QILLKQQKQKKERQQAETNVQLLERV-NH2) [SEQ ID NO: 65] ?
result: 9.31

query: May I ask what EC50 [nM], 0% HSA has been recorded for FTLSLDVPTKIKQILLKQQKQKKERQQAEKNKQLLERV-NH2 (not fully specified (residue 12); printed as FTLSLDVPTKIK*QILLKQQKQKKERQQAEKNKQLLERV-NH2) [SEQ ID NO: 60] ?
result: 0.48

query: May I ask what EC50 [nM], 0% HSA has been recorded for Ac-IVLSLD[dV]PIHLK([AEEA-AEEA-γGlu-C18 diacid])QILLEQERQK[Aib]QREQAEKNKQILEQV-NH2 [SEQ ID NO: 163] ?
result: 0.24

Kindly review the next binder as well.
query: May I ask what EC50 [nM], 0% HSA has been recorded for FTLSLDVPTKIKQILLKQQKQKKERQKAETNVQLLERV-NH2 (not fully specified (residue 12); printed as FTLSLDVPTKIK*QILLKQQKQKKERQKAETNVQLLERV-NH2) [SEQ ID NO: 64] ?
result: 13.2
